target: HLA-A*02:02; test: IEDB peptide-MHC binding, purified MHC/competitive/radioactivity; bounds were set here for any values at or beyond the usual limits of such assays; conditions: source organism: Mammarenavirus brazilense
metric.name: IC50 (nM)
Lab book: enter the figure in nM, no units written.

Look over these answered cases.
LRYFIMAYV | 213
LSNCVHPAV | 427
HSLPRCWLV | 655

Retrieve IC50 measured for `KCFGNTALA` and print it.
31

Give reported IC50 value for `RSASGGVYL`
278

Specify IC50 for `YNYSLSAAV` and stop.
79

###

target: HLA-A*02:01; assay: IEDB peptide-MHC binding, cellular MHC/competitive/fluorescence; bounds were set here for any values at or beyond the usual limits of such assays; conditions: source organism: Vaccinia virus WR
IC50 strictly less than 30 µM = MET. Otherwise NOT MET.

Worked set:
ETVKMGAFM | NOT MET
ILFLLFVCI | MET
PTSETMYLT | NOT MET

Report whether reported IC50 is lower than 30 µM (strictly) for `LAEYIRHRNT`
NOT MET

I'd appreciate it if you could check whether `AIMFKDDNI` has IC50 smaller than 30 µM.
MET

In the record for `PLTGNNTITT` , is IC50 less than 30 µM?
NOT MET

Confirm or reject: IC50 of `TANVVFRYM` lies strictly below 30 µM
MET

# TODO verify IC50 < 30 µM strictly for this sequence: `DANVVSSST`
MET

###

biological target: HLA-A*02:06; test: IEDB peptide-MHC binding, purified MHC/competitive/radioactivity; bounds were set here for any values at or beyond the usual limits of such assays; conditions: source organism: Vaccinia virus WR
# log10 IC50 values compiled below
Values are log10 of IC50 in nM.

SINITPDDGL | -0.47
TIKESLLKET | 1.94
NTCKPTILAT | 3.59
IASILSLET | 2.50
TISGNIYSAL | 3.43

Identify the reported log10 IC50 for the following entry. `FISSFLLPLT`
1.71

Give me measured log10 IC50, please, for this sequence: `KINPLLDEPL`
1.28

State its log10 IC50 for this sequence: `YVLFVKKML`
3.40

###

biological target: HLA-A*02:02; assay: IEDB peptide-MHC binding, purified MHC/competitive/radioactivity; bounds were set here for any values at or beyond the usual limits of such assays; conditions: source organism: Hepacivirus hominis
pIC50: −log10 of the molar value.
Use TRUE when the recorded pIC50 is no lower than 8; use FALSE when it is lower.

LIQDWIPPL | FALSE
GLLYFILFFV | FALSE
MLVCGDDLVV | FALSE
YMLVLAEALI | FALSE
RLWHYPCTV | FALSE
GLIHACMLV | TRUE
YLVTRNADV | FALSE
RLLAPITAYA | TRUE

--- query ---
Exam item: decide whether the reported pIC50 for `LIVMLLFAGV` is at least 8.
FALSE

###

A collection of sequences and their measured IC50
target: HLA-A*02:01; assay: IEDB peptide-MHC binding, purified MHC/competitive/radioactivity; bounds were set here for any values at or beyond the usual limits of such assays; settings: source organism: Vaccinia virus WR
Report only the number, with the unit nM understood.

DMIDNLNIV | 2360
FILGIIITV | 0.11
LLSSVDYKNI | 908
GAAITLVVI | 1080
KTDGIPITI | 48

Report its IC50 with HLA-A*02:01 as the test system: `YIRRNMINKL`
3800

Report its IC50 with HLA-A*02:01 as the test system: `LLTDTIESA`
25

Give IC50 for `DTWGSDGNPI` tested on HLA-A*02:01.
1150

Fill in: IC50 on HLA-A*02:01, entry `VLDTTLYAV`
0.6

Report value only: IC50, HLA-A*02:01, `TTNNLLEQLI`
4930

Provide IC50, recorded with HLA-A*02:01, of `LVDICDRIV`
2140

###

target: HLA-A*02:02; assay: IEDB peptide-MHC binding, cellular MHC/competitive/fluorescence; bounds were set here for any values at or beyond the usual limits of such assays; details: source organism: Vaccinia virus WR
Recorded measurements of IC50, one per entry
Quick reminder: number only, in µM, skip the unit.

See these solved cases before continuing.
DTCGASINIT | 23.6
FIVYGRSNA | 6.09
DLTALLSCI | 5.2
IAVFDSKLI | 7.85
EIVKNIREGT | 28.5
QTLISLNSM | 19.4

Would you please give the reported IC50 of `GALYLGHSA` with HLA-A*02:02?
7.5

###

target: HLA-A*68:02; assay: IEDB peptide-MHC binding, cellular MHC/competitive/fluorescence; bounds were set here for any values at or beyond the usual limits of such assays; settings: source organism: Vaccinia virus WR
Measured IC50 values are reported for all entries that follow.
Unit µM implied. Number only.

VMPEKRNVVV | 6.74
LQWDDNIPEL | 42.7
YLGHSAGFT | 8.45
LLENKSLTIL | 21.3
EIVSHLRAST | 6.33

GET IC50 where system = HLA-A*68:02 and item = `YVKNGTKGKL`
32.6

Give HLA-A*68:02 IC50 for the following sequence: `DVDMDFDLNI`
8.84

Recall the reported IC50 of `FQESFYEDI` when tested on HLA-A*68:02.
36.8

Provide HLA-A*68:02 IC50 reading for `NINIEVKLFI` .
7.44

Retrieve IC50 on HLA-A*68:02; query `RVTKRDESSI`
8.81

Report IC50 on HLA-A*68:02 for this entry: `KTNTKHCPKI`
20

Quote IC50 with test system HLA-A*68:02 for `RTWKVLSIMA`
8.2

Supply IC50 measured with HLA-A*68:02 for `PVDLVKSSFV` .
10.8

Find the measured IC50 of `YLLMHLVSL` with HLA-A*68:02 as test system.
7.75

Provide the reported IC50 (system: HLA-A*68:02) for `VLPFDIKYI`
9.87

Quote HLA-A*68:02 IC50 for entry `ALALEQYGI` .
40.4

Report IC50 from HLA-A*68:02 testing of `IAGLKIEEI`
27.5

###

target: HLA-A*02:02; test: IEDB peptide-MHC binding, purified MHC/competitive/radioactivity; bounds were set here for any values at or beyond the usual limits of such assays; settings: source organism: SARS-CoV1
List of log10(IC50) values.
Hello, just confirming the data are log10 of IC50 with units of nM.

# example entries with known answers
NLWNTFTRL | 1.38
IMQVFFGYFA | 2.77
LIVNSVLLFL | 0.57
FLITGVFDI | -0.16
FLAFLLFLVL | 1.11
ALVLLILMTA | 1.83
VLAWLYAAV | -1.01
NLAPHLLLIV | 0.71

Read the entry `AIAACAMLLV` and write its reported log10(IC50).
0.77

Report measured log10(IC50); entry is `IVAALVFLI`
-0.85

Please give the documented log10(IC50) of `HLDGEVLSL`
1.82

###

biological target: HLA-A*02:03; test: IEDB peptide-MHC binding, purified MHC/competitive/radioactivity; bounds were set here for any values at or beyond the usual limits of such assays; conditions: source organism: Vaccinia virus WR
Group membership follows IC50 per the scheme interval 1 (below 200 nM), interval 2 (200 nM to below 900 nM), interval 3 (900 nM or more)

SLKRFTHTTA | interval 2
DQDTMLFASA | interval 2
FIASAPQQL | interval 1

Band of `YVSVMNFIPI` ?
interval 1

Lab note: which band did `NLYKVYNGI` land in?
interval 1

Hello team, could you let me know which band the following sequence falls into: `KTRLFRSPQV`
interval 3

Which bin should I file `QLSNNKYVL` under?
interval 3

Any idea which band `TIAVSVYGAI` is in?
interval 2

###

target: HLA-A*31:01; test: IEDB peptide-MHC binding, cellular MHC/competitive/fluorescence; bounds were set here for any values at or beyond the usual limits of such assays; conditions: source organism: Mammarenavirus choriomeningitidis
metric.name: IC50 (µM)
Reply with just the number (in µM).

TSAYLISIFL | 3.1

Now take the following sequence into account.
Assign IC50 to the following record: `TLMSIVSSLH`
11.4

###

molecular target: HLA-A*02:01; assay: IEDB peptide-MHC binding, purified MHC/competitive/radioactivity; bounds were set here for any values at or beyond the usual limits of such assays; details: source organism: Vaccinia virus WR
metric.name: log10 of IC50 (log10 of the value in nM)
All values: base-10 log of IC50 in nM.

Please supply the value of reported log10 of IC50 for the item `LIFFVIILA`
2.37

Output measured log10 of IC50 for this item: `KVYLSTFNM`
2.73

Give a short answer stating reported log10 of IC50 for `HIGHHYIWI` .
3.48

Respond only with log10 of IC50 recorded for `RLQMAGVEV`
3.16

For the sequence `CISQHQHLA` , give its measured log10 of IC50 value.
2.65

Identify measured log10 of IC50 corresponding to `KLFTHDIML`
0.15

Write down log10 of IC50 measured for item `GLIACLIFV`
0.89

Data origin, for the record: the Immune Epitope Database (IEDB)
